Test: LNP encapsulation efficiency by Ribogreen assay (Example 16 LNPs)
Assay type: physicochemical
Settings: Example 16 LNPs: 47.5% Ionizable Lipid: 40% cholesterol: 2.5% PEG-2000 DMG: 10% DPSC, N/P 4-8
Below, each of the compounds is paired with its reported Mean Encapsulation Efficiency value.
Kindly answer with a numeric value in %, unit omitted.

Worked cases, answers included:
compound | result.unit | assay.result
CC/C=C\CCCCOC(CCC(=O)OCCCCCCCN(CCCCCCCOC(=O)CCC(OCCCC/C=C\CC)OCCCC/C=C\CC)CCN(CCO)CCCCCCCCCOC(=O)C(CCCC)CCCCCC)OCCCC/C=C\CC (centres unmarked) [Example 7-26] | % | 69.2
CC/C=C\CCCCOC(CCC(=O)OCCCCCCCN(CCCCCCCOC(=O)CCC(OCCCC/C=C\CC)OCCCC/C=C\CC)CCCN(CCCO)CCCCCCCC(=O)OCCCCCCCCC)OCCCC/C=C\CC [Example 7-28] | % | 49.6
CC/C=C\CCCCOC(CCC(=O)OCCCCCCCN(CCCCCCCOC(=O)CCC(OCCCC/C=C\CC)OCCCC/C=C\CC)CCN(CCO)CCCCCCCC(=O)OCCCCCCCCC)OCCCC/C=C\CC [Example 7-13] | % | 75.4
CC/C=C\CCCCOC(CCC(=O)OCCCCCCN(CCCO)CCN(CCCCCCOC(=O)CCC(OCCCC/C=C\CC)OCCCC/C=C\CC)CCCCCCOC(=O)CCC(OCCCC/C=C\CC)OCCCC/C=C\CC)OCCCC/C=C\CC [Example 7-16] | % | 81.8

Here is the next item to consider.
Given the compound CC/C=C\CCCCOC(CCC(=O)OCCCCCCCN(CCCCCCCOC(=O)CCC(OCCCC/C=C\CC)OCCCC/C=C\CC)CCN(CCCO)CCCCCCCC(=O)OCCCCCCCCC)OCCCC/C=C\CC [Example 7-19] , what is its reported Mean Encapsulation Efficiency?
70.0
